From: the supplement of paper PMC5949888

tested on: Saccharomyces cerevisiae PS128 hsf1 delta, HSF1(1-493) fusion; assay: growth estimate (transactivation domain function in HSF1 fusion, heat-shock survival) (a.u. (slope of normalised read count over time)); higher = stronger growth at 37°C, i.e. more transactivation activity; details: library: design library
QUANTITY KIND: growth estimate
Numbers only.

Recorded growth estimate, per entry:
- SEQUENCE CHAIN: "QQNGEIAQGWDFN"
  growth estimate: -0.247
- SEQUENCE CHAIN: "ADDDEFSLWDSML"
  growth estimate: 1.96
- SEQUENCE CHAIN: "PEFPGIELQELQELAALLQQ"
  growth estimate: 0.178

Below is a list of sequences. For each, state its recorded growth estimate.
1. DFDLDMLGDKDLDMLG
2. DFDLDMLGDFDADMLG
3. DLDESWDYIFATTE

[-0.188, 21.1, 1.5]

Below is a list of sequences. For each, state its recorded growth estimate.
1. MLSSHGFSVDTSALLDKFSP
2. VADRIWEELLSEDL
3. DFALDMLGDFDLDMLG
4. DELSPIIELLEKDG

1. -0.227
2. -0.176
3. 3.21
4. -0.237

====

tested on: Saccharomyces cerevisiae PS128 hsf1 delta, HSF1(1-493) fusion; experiment: growth estimate (transactivation domain function in HSF1 fusion, heat-shock survival) (a.u. (slope of normalised read count over time)); higher = stronger growth at 37°C, i.e. more transactivation activity; details: library: design library
Consider the following sequences; for each one, report its growth estimate.

Recorded growth estimate, per entry:
- SEQUENCE CHAIN: "DLDESWDKIFETTE"
  TEST RESULT: -0.06
- SEQUENCE CHAIN: "TMDDRYNYLFDD"
  TEST RESULT: -0.144
- SEQUENCE CHAIN: "MLSSHGFSVDTSALLRLFSP"
  TEST RESULT: -0.193
- SEQUENCE CHAIN: "PAFPGIELQELQELQALLQQ"
  TEST RESULT: -0.0264

Below is a list of sequences. For each, state its recorded growth estimate.
1. DEASWIIELLEKDG
2. EDPYSILWSDVY
3. EDLPSILWSDVY
4. VAGDIWEELLSEDL
5. DFDLDMKGDFDLDMLG

1: -0.123; 2: 0.731; 3: < -0.25; 4: 0.447; 5: 0.067

Below is a list of sequences. For each, state its recorded growth estimate.
1. EDLYKILWSDVY
2. MLSSHGFSVDTSALLALFSP
3. MLGSHGFSVDTSALLDLFSP
4. GDDDEFSLWDSML
5. PEFPGIELQALQELQALLQQ
6. LFDYDFLFGNDPA

1. -0.0738
2. -0.21
3. 0.0043
4. 1.64
5. 0.169
6. 0.915

Below is a list of sequences. For each, state its recorded growth estimate.
1. QQNKEIAQLWDFN
2. DLDKSWDYIFETTE
3. MLASHGFSVDTSALLDLFSP

-0.241
-0.196
-0.0319

====

Consider the following sequences; for each one, report its growth estimate.
system: Saccharomyces cerevisiae PS128 hsf1 delta, HSF1(1-493) fusion; assay: growth estimate (transactivation domain function in HSF1 fusion, heat-shock survival) (a.u. (slope of normalised read count over time)); higher = stronger growth at 37°C, i.e. more transactivation activity; details: library: design library
Answers are plain numbers.

Below is a list of sequences. For each, state its recorded growth estimate.
1. EDLYSIPWSDVY
2. LFDYDFLFGNDFR
3. PEKPGIELQELQELQALLQQ
4. MLSSHGFSVPTSALLDLFSP

[-0.196, 3.17, -0.204, -0.204]

Below is a list of sequences. For each, state its recorded growth estimate.
1. VADDIWEELGSEDL
2. PEFPGIELQELQELQALLKQ

-0.221
0.0452

Below is a list of sequences. For each, state its recorded growth estimate.
1. GEFPGIELQELQELQALLQQ
2. PFPDTQDDFLKKWRSEEAQ
3. LFAYDFLFGNDFA
4. VADKIWEELLSEDL
5. VADDIWEELLSRDL
6. TMDDVYNYLFGD
7. PEFPGIELQELQELKALLQQ
8. LFDYDFLFGNDGA

1: -0.114; 2: -0.167; 3: 0.948; 4: -0.0109; 5: 6.53; 6: 1.05; 7: -0.22; 8: 0.693

Below is a list of sequences. For each, state its recorded growth estimate.
1. MLSSHGFSVDTSALLDLFRP
2. LFDKDFLFGNDFA
3. PFPDTQDDFLAWWRSEEAQ
4. EDDDEFALWDSML
5. DLDPSWDYIFETTE

-0.22
-0.177
2.37
0.128
0.39

====

test system: Saccharomyces cerevisiae PS128 hsf1 delta, HSF1(1-493) fusion; assay: growth estimate (transactivation domain function in HSF1 fusion, heat-shock survival) (a.u. (slope of normalised read count over time)); higher = stronger growth at 37°C, i.e. more transactivation activity; conditions: library: design library
Assign Satisfied whenever growth estimate does not fall below -0.2; assign Not satisfied whenever it does.

- SEQUENCE CHAIN: "EFNDLLDLGFILSN"
  ASSIGNED CLASS: "Not satisfied"

Answer whether growth estimate of DLRESWDYIFETTE is greater than or equal to -0.2.
Not satisfied

====

Consider the following sequences; for each one, report its growth estimate.
system: Saccharomyces cerevisiae PS128 hsf1 delta, HSF1(1-493) fusion; assay: growth estimate (transactivation domain function in HSF1 fusion, heat-shock survival) (a.u. (slope of normalised read count over time)); higher = stronger growth at 37°C, i.e. more transactivation activity; conditions: library: design library
Give bare numbers.

Recorded growth estimate, per entry:
- SEQUENCE CHAIN: "LFDYDFLFGRDFA"
  TARGET OR SYSTEM: "Saccharomyces cerevisiae PS128 hsf1 delta, HSF1(1-493) fusion"
  TEST RESULT: 3.41
- SEQUENCE CHAIN: "DELRWIIELLEKDG"
  TARGET OR SYSTEM: "Saccharomyces cerevisiae PS128 hsf1 delta, HSF1(1-493) fusion"
  TEST RESULT: 0.0232
- SEQUENCE CHAIN: "PFPDTQDDFLKWWRSEGAQ"
  TARGET OR SYSTEM: "Saccharomyces cerevisiae PS128 hsf1 delta, HSF1(1-493) fusion"
  TEST RESULT: -0.0427

Below is a list of sequences. For each, state its recorded growth estimate.
1. PFPDTQDDFLKGWRSEEAQ
2. GMDDVYNYLFDD
3. GDLYSILWSDVY
4. GFDYDFLFGNDFA
5. DELSWIIELLAKDG
6. VADDIWERLLSEDL

1. -0.242
2. 0.253
3. -0.212
4. 8.74
5. -0.221
6. 2.04

Below is a list of sequences. For each, state its recorded growth estimate.
1. EDDDEKSLWDSML
2. DFDLDMLKDFDLDMLG
3. QQNGEIAQKWDFN
4. DFDLDMLGDFDLDGLG
5. EFNDLADLDFILSN
6. EDLGSILWSDVY
7. RLDESWDYIFETTE
8. PFPDTQDDFLKWWRSEEAQ

[-0.0523, 2.58, 0.0645, 2.79, 0.121, -0.0522, -0.191, -0.149]

Below is a list of sequences. For each, state its recorded growth estimate.
1. PFPDTQDDFLKWWPSEEAQ
2. EFNDPLDLDFILSN
3. DLDESWGYIFETTE

1. 3.12
2. -0.119
3. 0.0335

Below is a list of sequences. For each, state its recorded growth estimate.
1. LFDYDFLFGNPFA
2. EFNDLLDLDFIKSN
3. PEFPGIELQELQELQAALQQ
4. EDLYSIRWSDVY
5. DKDESWDYIFETTE
6. EFNDLLDLDFPLSN
7. LFDYDFLFGKDFA
8. DELSWIPELLEKDG

1: -0.0703; 2: -0.165; 3: -0.23; 4: -0.219; 5: -0.235; 6: 1.64; 7: 2.49; 8: -0.091

Below is a list of sequences. For each, state its recorded growth estimate.
1. PEFPGIELQELQELQALKQQ
2. EFNDLLDLDFRLSN

1: -0.232; 2: 0.0126

Below is a list of sequences. For each, state its recorded growth estimate.
1. DFDLDMLGDFDLDMKG
2. EFNDLLDLDFILRN
3. QQNGRIAQLWDFN
4. EDLYSILWSRVY

1: 3.28; 2: 5.09; 3: -0.248; 4: -0.0908

Below is a list of sequences. For each, state its recorded growth estimate.
1. QQNGEPAQLWDFN
2. MLSSHGFSVDTSALADLFSP
3. DFDLDMLGDFDLRMLG

-0.235
-0.191
0.112

Below is a list of sequences. For each, state its recorded growth estimate.
1. DELSWIIELLEKDG
2. LFDYGFLFGNDFA
3. LFGYDFLFGNDFA
4. PFPDTQDDKLKWWRSEEAQ
5. DELSWIIELLEKPG
6. VADDIWEELLSEDG
7. PEFPGIEKQELQELQALLQQ
8. RFNDLLDLDFILSN

[1.7, 1.29, 1.68, -0.245, 0.0373, 0.0334, 0.269, -0.133]
